assay-text: Tmax in hamster at 30 mg/kg, po
Format: ADME, organism-based
Parameters: dose 30 mg/kg, route oral
reported-conditions: cricetinae, in vivo
assay-endpoint: Tmax (min)
Give the number; min is assumed, so skip it.

Tmax measured on CCOC(=O)/C=C/C=C/c1ccc2c(c1)OCO2 = 9

* * *

assay-text: Apparent permeability coefficient of parent compound in hamster at 400 uM administered as intestinal single-pass perfusion up to 1 hr by LC-MS/MS analysis
Type: ADME, organism-based
reported-conditions: cricetinae
assay-endpoint: Papp at 1 h, 400 µM (×10⁻⁶ cm/s)
Field: numeric (×10⁻⁶ cm/s). Do not append units.

Recorded Papp at 1 h, 400 µM (compound CCOC(=O)/C=C/C=C/c1ccc2c(c1)OCO2 ): 77

* * *

assay-text: Elimination half life in hamster at 10 mg/kg, iv
Assay type: ADME, organism-based
Design: dose 10 mg/kg, route intravenous
reported-conditions: cricetinae, in vivo, read-out: beta t1/2 (converted)
assay-endpoint: half-life (min)
State just the number; it will be interpreted in min.

Item: CCOC(=O)/C=C/C=C/c1ccc2c(c1)OCO2 | half-life: 37.8

* * *

assay-text: MRT (0 to t) in hamster at 30 mg/kg, po
Format: ADME, organism-based
Design: dose 30 mg/kg, route oral
reported-conditions: cricetinae, in vivo
assay-endpoint: MRT last (min)
# number only, unit min dropped from output

The molecule listed as CCOC(=O)/C=C/C=C/c1ccc2c(c1)OCO2 has a reported MRT last of 24

* * *

assay-text: Cmax in hamster at 30 mg/kg, po
Format: ADME, organism-based
Set-up: dose 30 mg/kg, route oral
reported-conditions: cricetinae, in vivo
assay-endpoint: Cmax (ng/mL)
Entry rule: numbers only, all in ng/mL.

So, CCOC(=O)/C=C/C=C/c1ccc2c(c1)OCO2 ? Its Cmax was 70.4

* * *

assay-text: Stability of the compound in hamster intestinal washings assessed as compound remaining at 100 uM after 1 hr by LC-MS/MS analysis
Assay type: ADME
reported-conditions: cricetinae, read-out: Stability
assay-endpoint: remaining at 1 h, 100 µM

Documented remaining at 1 h, 100 µM of CCOC(=O)/C=C/C=C/c1ccc2c(c1)OCO2 : > 80%

* * *

assay-text: Drug recovery in human Caco2 cells at 5 uM after 1 hr in presence of BNPP
Type: ADME, cell-based
reported-conditions: Caco-2, with BNPP, read-out: Drug recovery
assay-endpoint: recovery at 1 h, 5 µM

Summary for this compound, CCOC(=O)/C=C/C=C/c1ccc2c(c1)OCO2 : recovery at 1 h, 5 µM is > 90%

* * *

assay-text: MRT (0 to t) in hamster at 10 mg/kg, iv
Format: ADME, organism-based
Set-up: dose 10 mg/kg, route intravenous
reported-conditions: cricetinae, in vivo
assay-endpoint: MRT last

MRT last reported for this compound CCOC(=O)/C=C/C=C/c1ccc2c(c1)OCO2 : 25.8 min

* * *

assay-text: AUC (0 to t) in hamster at 10 mg/kg, iv
Type: ADME, organism-based
Design: dose 10 mg/kg, route intravenous
reported-conditions: cricetinae, plasma
assay-endpoint: AUC(0-t) (ng·h/mL)
API: value field is a number in ng·h/mL; no unit string.

Lab note: measured AUC(0-t) of CCOC(=O)/C=C/C=C/c1ccc2c(c1)OCO2 was 2450

* * *

assay-text: Apparent permeability coefficient of compound in hamster treated with 400 uM of ethyl piperate administered as intestinal single-pass perfusion up to 1 hr by LC-MS/MS analysis in presence of BNPP
Type: ADME, organism-based
reported-conditions: cricetinae
assay-endpoint: Papp at 1 h (×10⁻⁶ cm/s)
Number only, in ×10⁻⁶ cm/s; omit the unit.

Lookup result for O=C(O)/C=C/C=C/c1ccc2c(c1)OCO2 [PIPERIC ACID] ; measured Papp at 1 h: 127

* * *

assay-text: AUC (0 to t) in hamster at 30 mg/kg, po
Assay type: ADME, organism-based
Parameters: dose 30 mg/kg, route oral
reported-conditions: cricetinae, plasma
assay-endpoint: AUC(0-t)
Report the figure along with its unit, number first.

AUC(0-t) reported for this molecule CCOC(=O)/C=C/C=C/c1ccc2c(c1)OCO2 : 34.5 ng·h/mL

* * *

assay-text: Drug metabolism in hamster intestinal S9 fraction assessed as production of piperinic acid by Michaelis-Menten equation analysis
Format: ADME, Intestine
reported-conditions: cricetinae
assay-endpoint: Km (µM)
Use µM as the unit, but write only the number.

// Km lookup, compound = CCOC(=O)/C=C/C=C/c1ccc2c(c1)OCO2 , result: 7.56
